For reference, the following pIC50 results for RAC-alpha serine/threonine-protein kinase (Homo sapiens) were taken from various sources.
Worth noting: pIC50 values are minus log10 of concentrations stated in mol/L.

INSERT INTO results (molecule, numeric_value) VALUES
  ('CC(C)NC[C@@H](C(=O)N1CCN(c2ncnc3c2N(C)C(=O)CN3)CC1)c1ccc(Cl)cc1', 6.84),
  ('NC1(c2ccc(-c3nc4n(c3-c3ccccc3)COc3ncccc3-4)cc2)CCC1', 8.41),
  ('COc1cc2ncc3c(N)nc(-c4cncc(OC[C@H](N)Cc5c[nH]c6ccccc56)c4)cc3c2cc1OC', 7.74),
  ('CCCC1C[C@@H](c2ccc(Cl)c(Cl)c2)[C@H](NC(=O)c2cc(-c3c(Cl)cnn3C)c(Cl)o2)CN1 (stereo partly shown)', 9.30),
  ('O=C(CCc1cccnc1)Nc1cccc(Nc2ncnc3[nH]cc(C(=O)c4ccccc4)c23)c1', 6.54);

Problem: Provide RAC-alpha serine/threonine-protein kinase (Homo sapiens) pIC50 reading for Cc1cc([C@@H](CN2CCC2)Nc2ncnc3c(C(N)=O)cccc23)ccc1F .
Solution: 7.64

Problem: Provide RAC-alpha serine/threonine-protein kinase (Homo sapiens) pIC50 reading for Cc1c[nH]c2ncnc(N3C[C@H]4CC[C@@H](C3)N4C(=O)[C@H](CNC(C)C)c3ccc(Cl)cc3)c12 .
Solution: 8.28

Problem: Provide RAC-alpha serine/threonine-protein kinase (Homo sapiens) pIC50 reading for CC(C)NCCNc1ccc(-c2cnc(F)c(F)c2)nc1C1CCN(c2ncnc3c2C(C)(C)C(=O)N3)CC1 .
Solution: 8.46

----------
For reference, the following pIC50 results for RAC-alpha serine/threonine-protein kinase (Homo sapiens) were taken from various sources.
Worth noting: pIC50 values are minus log10 of concentrations stated in mol/L.

The cases that follow already have their pIC50 on record.
INSERT INTO measurements (compound, system_name, numeric_value) VALUES
  ('Cn1ncc(Cl)c1-c1cc(C(=O)N[C@H]2CNCC[C@@H]2c2ccc(Cl)c(Cl)c2)oc1Cl', 'RAC-alpha serine/threonine-protein kinase (Homo sapiens)', 7.24),
  ('CCONC(=O)c1ccc2c(c1)-c1nc(-c3ccc([C@]4(N)C[C@](C)(O)C4)cc3)c(-c3ccccc3)n1CO2', 'RAC-alpha serine/threonine-protein kinase (Homo sapiens)', 8.74),
  ('CCc1c(-c2ncnn2C)c(Br)n(C)c1C(=O)N[C@H]1CNCC[C@@H]1c1cccc(C(F)(F)F)c1 (racemic)', 'RAC-alpha serine/threonine-protein kinase (Homo sapiens)', 7.32),
  ('CNC(=O)c1cccc(Nc2ncnc3[nH]cc(C(=O)c4ccccc4)c23)c1', 'RAC-alpha serine/threonine-protein kinase (Homo sapiens)', 5.29),
  ('NC1(c2ccc(-c3nc4n(c3-c3ccccc3)COc3cccnc3-4)cc2)CCC1', 'RAC-alpha serine/threonine-protein kinase (Homo sapiens)', 7.46);

Problem: Provide RAC-alpha serine/threonine-protein kinase (Homo sapiens) pIC50 reading for Cn1ncc(Cl)c1-c1coc(C(=O)N[C@H]2CNCC[C@@H]2c2ccc(C(F)(F)F)cc2)c1 (racemic) .
Solution: 7.74

Problem: Provide RAC-alpha serine/threonine-protein kinase (Homo sapiens) pIC50 reading for CC(C)c1cnn(C)c1-c1nc(C(=O)N[C@H]2CNCC[C@@H]2C2CCC(F)C2)ncc1Cl (some centres unmarked) .
Solution: 7.07
